EXPERIMENT NOTES: Inhibition of Mycobacterium tuberculosis isocitrate lyase
QUANTITY MEASURED: pIC50
Schema: pIC50 number; meaning minus log10 of the concentration expressed in molar units.

// pIC50 lookup, key: O=c1c(O)c(-c2ccc(O)c(O)c2)oc2cc(O)cc(O)c12 [QUERCETIN] 5.45

These entries and their values trace back to ChEMBL document CHEMBL6078612.
